target: oleamide hydrolase (Rattus norvegicus); construct: The enzyme was used as a crude, heterogenous, membrane-containing preparation from rat liver; from tissue; host or cells: rat liver plasma membrane preparation (12-14 rat livers), crude; experiment: Oleamide hydrolase inhibition, ammonia production measured with ion-selective electrode; assay type: biochemical
Result Type: inhibition of oleamide hydrolase (in words)

| Compound | Result |
| --- | --- |
| c1cc(SSc2ccncc2)ccn1 [4,4'-dithiodipyridine disulfide, reference compound] | can be inhibited |
| CCCCCCCC/C=C\CCCCCCC(O)C(N)=O (stereo not shown) [Compound 17, 2-Hydroxy-9Z-octadecenamide] | poor inhibition |
| CCCCCCCC/C=C\CCCCCCCC(OC)OC [Compound 16] | poor inhibition |
| O=S(=O)(F)Cc1ccccc1 [phenylmethylsulfonyl fluoride, reference compound] | can be inhibited |
| [Cl][Hg][Cl] [HgCl2, reference compound] | can be inhibited |
| CCCCCCCC/C=C\CCCCCCC(O)C(=O)O (stereo not shown) [Compound 18] | poor inhibition |

###

Biological target: oleamide hydrolase (Rattus norvegicus)
Construct: The enzyme was used as a crude, heterogenous, membrane-containing preparation from rat liver; from tissue; host or cells: rat liver plasma membrane preparation (12-14 rat livers), crude
Sequence (P97612 1-579): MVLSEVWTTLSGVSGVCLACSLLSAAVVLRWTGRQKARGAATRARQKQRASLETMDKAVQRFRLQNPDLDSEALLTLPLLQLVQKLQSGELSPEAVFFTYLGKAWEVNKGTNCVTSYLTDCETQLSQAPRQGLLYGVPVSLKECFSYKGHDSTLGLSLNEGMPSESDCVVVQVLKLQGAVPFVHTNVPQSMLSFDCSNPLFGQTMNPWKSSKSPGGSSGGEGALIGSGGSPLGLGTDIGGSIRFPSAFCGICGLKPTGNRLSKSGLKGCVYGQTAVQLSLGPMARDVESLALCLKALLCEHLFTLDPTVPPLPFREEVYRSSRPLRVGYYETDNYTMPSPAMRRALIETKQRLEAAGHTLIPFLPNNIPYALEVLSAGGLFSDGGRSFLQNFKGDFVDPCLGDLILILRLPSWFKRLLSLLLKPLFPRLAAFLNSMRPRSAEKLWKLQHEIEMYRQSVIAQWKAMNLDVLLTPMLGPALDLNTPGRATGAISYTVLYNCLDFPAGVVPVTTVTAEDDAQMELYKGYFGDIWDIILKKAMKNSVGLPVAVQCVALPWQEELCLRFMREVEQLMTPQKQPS
Experiment: Oleamide hydrolase inhibition, ammonia production measured with ion-selective electrode
Format: biochemical
pKi: −log10 of the molar value.
Result Type: pKi

| Compound | Experimental System | Quantitative Result |
| --- | --- | --- |
| CCCCCCCC/C=C\CCCCCCCC(=O)C(F)(F)F [Compound 12, 1,1,1-Trifluoro-10Z-nonadecen-2-one] | oleamide hydrolase (Rattus norvegicus) | 8.92 |

###

assay: Solubility of oleamide in assay buffer; format: physicochemical; settings: buffer with 5% dmso, organic solvent or mixture; buffer containing 5% DMSO; read-out: solubility limit
Result Type: solubility

| Molecule | Result Type | Result |
| --- | --- | --- |
| CCCCCCCC/C=C\CCCCCCCC(N)=O [Compound 1, cis-9-octadecenamide] | solubility | ~200 µM |

###

experiment: Extent of hydration / hemiacetal formation of inhibitor carbonyl by 1H and 13C NMR; assay type: physicochemical; settings: CD3OD, NMR
Result Type: conversion to hemiacetal

| Molecule | Result Type | Result |
| --- | --- | --- |
| CCCCCCCCCCCCCCCC(=O)C(O)(O)C(=O)OC(C)(C)C [Compound 11] | conversion to hemiacetal | 100% |
| CCCCCCCC/C=C\CCCCCCCC(=O)C(F)(F)F [Compound 12, 1,1,1-Trifluoro-10Z-nonadecen-2-one] | conversion to hemiacetal | 100% |
| CCCCCCCC/C=C\CCCCCCC(=O)C(=O)OCC [Compound 8, Ethyl 2-Oxo-9Z-octadecenoate] | conversion to hemiacetal | 75% |
| CCCCCCCC/C=C\CCCCCCC(=O)C(N)=O [Compound 6, 2-Oxo-9Z-octadecenamide] | conversion to hemiacetal | 48% |
| CCCCCCCC/C=C\CCCCCCCC=O [Compound 4] | conversion to hemiacetal | 47% |

###

biological target: oleamide hydrolase (Rattus norvegicus, UniProt P97612); construct: The enzyme was used as a crude, heterogenous, membrane-containing preparation from rat liver; experiment: Oleamide hydrolase inhibition, ammonia production measured with ion-selective electrode; conditions: HgCl2

| Molecule | IC50, µM |
| --- | --- |
| [Cl][Hg][Cl] [HgCl2, reference compound] | 0.7 |

###

target: oleamide hydrolase (Rattus norvegicus, UniProt P97612); construct: The enzyme was used as a crude, heterogenous, membrane-containing preparation from rat liver; from tissue; host or cells: rat liver plasma membrane preparation (12-14 rat livers), crude; experiment: Oleamide hydrolase inhibition, ammonia production measured with ion-selective electrode; format: biochemical; conditions: pH 10.0, non-linear weighted least-squares fit, 10 to 100 μM oleamide; read-out: Ki

| Compound | Ki |
| --- | --- |
| CCCCCCCC/C=C\CCCCCCCC(=O)O [oleic acid, cis-9-octadecenoic acid, reference compound] | 6 µM |
